- System: MOLM-13 cells (human acute myeloid leukemia cells)
- assayExplanation: MOLM-13 Cellular Assay
- Type: cell-based
- settings: Homo sapiens, MOLM-13, 72 h, 72 hours exposure, cell viability by CellTiter-Glo
- Experimental: The following assay is referred to herein as the “MOLM-13 Cellular Assay.” MOLM-13 cells (human acute myeloid leukemia cells) were obtained from DSMZ and were maintained in RPMI 1640+Glutamax+25 mM HEPES (Invitrogen, catalog number 72400) supplemented with 10% heat inactivated fetal bovine serum (FBS; Invitrogen, catalog number 16140). The day prior to assay set-up, cells were pelleted, resuspended in fresh media, counted, and cells were plated at 0.4×10^6 cell/mL in a T150 flask. […]
readout: pIC50
Notebook: values listed as pIC50 are -log10 of the concentration (mol/L).

Use the examples below as a reference point.
CCn1c(CO)nn(-c2cc3c(C(C)C)cn(-c4cc(C)ccc4C)c(=O)c3cc2F)c1=O [Example 75]	9.00
CCn1c(CO)nn(-c2cc3c(C(C)C)cn([C@H]4CC[C@@H](OC)C4)c(=O)c3cc2F)c1=O (racemic) [Example 119]	8.00
CCn1c(CO)nn(-c2cc3c(C(C)C)cn(-c4nccc(OC)c4Cl)c(=O)c3cc2F)c1=O [Example 110]	7.70

Consider now this further compound.
Record summary for C=C(C)c1cn(-c2cc(OC)ccc2Cl)c(=O)c2cc(F)c(-n3nc(CO)n(CC)c3=O)cc12 [Example 47] : reported pIC50 = 9.15
